System: Plasmodium falciparum
Method summary: GSK_TCMDC: Inhibition of Plasmodium falciparum Dd2 in whole red blood cells, using parasite LDH activity as an index of growth. Test compounds present at 2uM
Type: functional
Here the recorded Inhibition is given for each entry.
Dear colleague, please return just the value in %, with no unit written.

For orientation, consider the following solved cases.
CCOCCCn1c(=N)c(C(=O)NCc2ccc(OC)cc2)cc2c(=O)n3cccc(C)c3nc21    46
COc1ccc2[nH]ccc(=NN=Cc3ccc(N(C)C)cc3)c2c1    95

Request: Tell me Inhibition of CN(CCCCCN1CCC(NC(=O)Nc2ccc(Oc3ccccc3)cc2)C1)C(=O)/C=C/c1ccc(Cl)c(Cl)c1 (configuration not stated) when tested on Plasmodium falciparum.
Response: 14

Request: Give the observed Inhibition of O=C(NCC1CCC(C(=O)NCc2cccc(C(F)(F)F)c2)CC1)c1ccc(O)c(-c2ccc(Cl)c(Cl)c2)c1 (configuration not stated) for Plasmodium falciparum.
Response: 41

Request: Name the recorded Inhibition of O=C(/C=C/c1ccc(Cl)c(Cl)c1)NCCCCCN1CCC(NC(=O)Nc2cc(F)cc(F)c2)CC1 , assay system Plasmodium falciparum.
Response: 6

Request: Retrieve Inhibition on Plasmodium falciparum; query CCCCCCN(CCCCCC)CC(O)c1cc(-c2ccc(Cl)cc2)nc2c(C)cc(C)cc12 (configuration not stated)
Response: 98

Request: Give Inhibition for CN(C)CCNCc1cccc(-c2ccc3c(Nc4ccc(Oc5ccccn5)cc4)ccnc3c2)c1 tested on Plasmodium falciparum.
Response: 100
